Test: chemical genetic growth profiling, strain panel (AID 1159580);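 also: tested at 20 µM; growth read once vehicle control cultures reached saturation at 30 °C; 1 = growth at the plate median or of vehicle wells; lower values mean less growth of the strain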
Details: S. cerevisiae deletion strains, growth OD, locus YDR388W, hits give low values
Screen size: about 5,500 compounds; about 2,000 (36%) were called active. About 18% were inconclusive and are not listed. The list shows a part of the results.
MEASURED_ENDPOINT: normalized growth
Form: value (number only, do not type unit).

Known normalized growth results, listed for orientation:
[
  {
    "COMPOUND": "CCC1(C)CC(=O)NC1=O (stereo unspecified)",
    "normalized growth": 1.02
  },
  {
    "COMPOUND": "COC(=O)[C@@H]1C(O)CC[C@H]2CN3CCc4c([nH]c5ccccc45)[C@@H]3C[C@@H]21 (stereo partly specified)",
    "normalized growth": 0.999
  },
  {
    "COMPOUND": "CC(C(=O)O)c1ccc2c(c1)[nH]c1ccc(Cl)cc12 (stereo unspecified)",
    "normalized growth": 0.978
  },
  {
    "COMPOUND": "O=C(/C=C/C=C/c1ccc2c(c1)OCO2)N1CCCCC1",
    "normalized growth": 0.931
  },
  {
    "COMPOUND": "Oc1ccc(O)cc1",
    "normalized growth": 0.999
  }
]

Sample COC(=O)C1[C@H]2C[C@H]3c4[nH]c5ccccc5c4CCN3C[C@@H]2CC[C@@H]1O (stereo partly specified) — what was its normalized growth?
1.02

Fill in the blank: the reported normalized growth of CCC1(c2ccc(N)cc2)CCC(=O)NC1=O (stereo unspecified) is ____.
0.999

Fill in: normalized growth of COC(=O)COc1cc(Cl)c(Cl)cc1Cl is ___
0.974

---

Assay: chemical genetic growth profiling, strain panel (AID 1159580)
Conditions: S. cerevisiae deletion strains, growth OD, locus YDR001C, strain nth1, hits give low values
Screen size: about 5,500 compounds; about 2,000 (36%) were called active. About 18% were inconclusive and are not listed. Some of the results follow.
# normalized growth values compiled below
// print number alone

Examples with their reported normalized growth follow.
[
  {
    "MOLECULE": "CC(C)(N=NC(C)(C)C(=N)N)C(=N)N",
    "normalized growth": 1.02
  },
  {
    "MOLECULE": "COc1ccc2cc1Oc1ccc(cc1)C[C@H]1c3c(cc4c(c3Oc3cc5c(cc3OC)CCN(C)[C@@H]5C2)OCO4)CCN1C",
    "normalized growth": 0.989
  },
  {
    "MOLECULE": "OCc1ccccc1O[C@@H]1O[C@H](CO)[C@@H](O)[C@H](O)[C@H]1O",
    "normalized growth": 0.984
  }
]

Could you now look at the following molecule, please?
So what does the record say about normalized growth for CC[C@@H](CO)NCCN[C@@H](CC)CO ?
1.01

---

Assay: chemical genetic growth profiling, strain panel (AID 1159580)
Settings: S. cerevisiae deletion strains, growth OD, locus YGR252W, strain gcn5
Out of some 5,500 compounds screened, about 2,000 (36%) were called active. Not shown: some 18% with an inconclusive outcome. Rule as the data show it: active = normalized growth mostly below about 0.91 (no sharp cut-off); inconclusive = no clear call, values can overlap the other calls; inactive = mostly above about 0.92. The list shows a part of the results.
# valid calls are active, inactive; nothing else

[
  {
    "MOLECULE": "CN1CCc2cc3c(cc2C1O)OCO3 (stereo not given)",
    "CLASS_NAME": "inactive"
  },
  {
    "MOLECULE": "O=C(/C=C/C=C/c1ccc2c(c1)OCO2)N1CCCCC1",
    "CLASS_NAME": "active"
  },
  {
    "MOLECULE": "CC1(C)S[C@@H]2[C@H](NC(=O)[C@H](NC(=O)N3CCNC3=O)c3ccccc3)C(=O)N2C1C(=O)O (stereo not given in full)",
    "CLASS_NAME": "inactive"
  },
  {
    "MOLECULE": "Nc1nc2[nH]c(=O)c(=O)[nH]c2c(=O)[nH]1",
    "CLASS_NAME": "inactive"
  }
]

Any idea what this test logged for CC(=O)O[C@H]1C(=O)[C@@]2(C)C([C@H](OC(=O)c3ccccc3)[C@]3(O)C[C@H](OC(=O)[C@H](O)[C@@H](NC(=O)c4ccccc4)c4ccccc4)C(C)=C1C3(C)C)[C@]1(OC(C)=O)CO[C@@H]1C[C@@H]2O (stereo not given in full) ?
inactive

Identify the outcome logged in this assay for the molecule shown: C=CCc1ccc2c(c1)OCO2
inactive

Assay result, entry NC(N)=Nc1nc(CSCCC(N)=NS(N)(=O)=O)cs1 — outcome?
inactive

Short answer needed: outcome of this test for NC[C@@H]1O[C@H](O[C@@H]2[C@@H](CO)OC(O[C@@H]3[C@@H](O)[C@H](N)C[C@H](N)[C@H]3OC3O[C@H](CN)[C@@H](O)[C@H](O)[C@H]3N)[C@@H]2O)[C@H](N)[C@@H](O)[C@@H]1O (stereo not given in full) ?
inactive

Test call, this molecule: OCC(O)Cc1ccc2c(c1)OCO2 (stereo not given)
inactive

Record request — test call for NC(=O)N1c2ccccc2CC(=O)c2ccccc21
inactive

---

Assay: chemical genetic growth profiling, strain panel (AID 1159580);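 also: tested at 20 µM; growth read once vehicle control cultures reached saturation at 30 °C; 1 = growth at the plate median or of vehicle wells; lower values mean less growth of the strain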
Settings: S. cerevisiae deletion strains, growth OD, locus YHR079C, strain IRE1, hits give low values
The campaign covered roughly 5,500 compounds. About 2,000 (36%) were called active. About 18% were inconclusive and are not listed. This is one part of the list.
Sorting guide: entries reporting normalized growth beneath 1 go in the True pile, the rest go in the False pile.

Use these answered entries as a reference point.
[
  {
    "MOLECULE": "c1ccc(CN(CC2=NCCN2)c2ccccc2)cc1",
    "CLASS_NAME": "False"
  },
  {
    "MOLECULE": "c1ccc(CC2=NCCN2)cc1",
    "CLASS_NAME": "True"
  }
]

Now turn to the next compound.
Please state whether normalized growth is below 1 for CCCCCCCCCCCCCCCCOP(=O)([O-])OCC[N+](C)(C)C
True

---

Recorded normalized growth by entry
Assay: chemical genetic growth profiling, strain panel (AID 1159580);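 also: tested at 20 µM; growth read once vehicle control cultures reached saturation at 30 °C; 1 = growth at the plate median or of vehicle wells; lower values mean less growth of the strain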
Settings: S. cerevisiae deletion strains, growth OD, locus YOR070C, strain gyp1, hits give low values
Among all 5,500 compounds or so, about 2,000 (36%) were called active. Another 18% or so got no clear call; they are omitted. The list shows a part of the results.
Answer with the value's number alone.

Look over these answered cases.
[
  {
    "COMPOUND": "CC(C)=CCc1c(O)cc2oc(C)cc(=O)c2c1O",
    "normalized growth": 0.983
  },
  {
    "COMPOUND": "O=C(O)C1CC([C@@H]2CCCCN2)CN2CCCCC12 (some centres not stated)",
    "normalized growth": 0.999
  },
  {
    "COMPOUND": "CCC(C(=O)O)c1ccccc1 (configuration not stated)",
    "normalized growth": 0.976
  },
  {
    "COMPOUND": "C=C1CC[C@H](O)C/C1=C/C=C1\\CCC[C@]2(C)C([C@H](C)/C=C/[C@H](C)C(C)C)CC[C@@H]12 (some centres not stated)",
    "normalized growth": 1.01
  },
  {
    "COMPOUND": "CC(=O)O[C@H]1C(=O)[C@@]2(C)C([C@H](OC(=O)c3ccccc3)[C@]3(O)C[C@H](OC(=O)[C@H](O)[C@@H](NC(=O)c4ccccc4)c4ccccc4)C(C)=C1C3(C)C)[C@]1(OC(C)=O)CO[C@@H]1C[C@@H]2O (some centres not stated)",
    "normalized growth": 0.995
  },
  {
    "COMPOUND": "COc1cccc([C@]2(O)CCCC[C@H]2CN(C)C)c1",
    "normalized growth": 0.978
  },
  {
    "COMPOUND": "CC(=O)OC1CC23CC24CCC(OC2OCC(O)C(O)C2O)C(C)(C)C4CCC3C2(C)CC3OC4(CC(C)C3C12C)OC(O)C1(C)OC41 (configuration not stated)",
    "normalized growth": 1.02
  },
  {
    "COMPOUND": "CC(C)CC1C(=O)N2CCC[C@H]2C2(O)O[C@](NC(=O)C3C=C4c5cccc6[nH]c(Br)c(c56)C[C@H]4N(C)C3)(C(C)C)C(=O)N12 (some centres not stated)",
    "normalized growth": 0.985
  },
  {
    "COMPOUND": "O=c1ccc2cc(O)c(O)cc2o1",
    "normalized growth": 1
  },
  {
    "COMPOUND": "COc1cc(O)c(C(=O)c2ccccc2)cc1O",
    "normalized growth": 0.983
  }
]

Which measured normalized growth value corresponds to CCCCOc1ccc(C(=O)CCN2CCCCC2)cc1 ?
0.938

Query (compound): COc1ccc(C(=O)c2ccccc2)c(O)c1 ; field requested: normalized growth
0.857

---

Assay: chemical genetic growth profiling, strain panel (AID 1159580);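 also: tested at 20 µM; growth read once vehicle control cultures reached saturation at 30 °C; 1 = growth at the plate median or of vehicle wells; lower values mean less growth of the strain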
Details: S. cerevisiae deletion strains, growth OD, locus YAL026C, strain drs2, hits give low values
In all, about 5,500 compounds went through this assay and about 2,000 (36%) were called active. Another 18% or so got no clear call; they are omitted. The list shows a part of the results.
Parameter normalized growth: see the listing below.
Just the number, please, no unit attached.

Sample answers from the record:
[
  {
    "MOLECULE": "NC(=O)N1c2ccccc2CC(=O)c2ccccc21",
    "MEASURED_ENDPOINT": "normalized growth",
    "READING": 0.998
  },
  {
    "MOLECULE": "c1ccc(CC2=NCCN2)cc1",
    "MEASURED_ENDPOINT": "normalized growth",
    "READING": 1.03
  },
  {
    "MOLECULE": "OC(CCN1CCCCC1)(c1ccccc1)c1ccccc1",
    "MEASURED_ENDPOINT": "normalized growth",
    "READING": 0.985
  }
]

Item under review: O=C(O)c1ccccc1OP(=O)(O)O . Reported normalized growth?
1.01

# input molecule: C=CCc1ccc2c(c1)OCO2 ; wanted: its normalized growth
1.04

Which normalized growth reading was recorded for the molecule CCCCOc1ccc(OCCCN2CCOCC2)cc1 ?
0.0964

Look at this molecule and give its reported normalized growth. O=C(O)C1CC([C@@H]2CCCCN2)CN2CCCCC12 (stereo partly drawn)
0.967

Dear colleague, I am looking for the recorded normalized growth of the following molecule: Cc1cc(C(C)(C)CC(C)(C)C)ccc1OCCOCC[N+](C)(C)Cc1ccccc1
0.0577

Please give the measured normalized growth for this molecule: CC1(C)S[C@@H]2[C@H](NC(=O)[C@H](NC(=O)N3CCNC3=O)c3ccccc3)C(=O)N2C1C(=O)O (stereo partly drawn)
0.984

Consider the molecule shown here: O=C(O)COc1cc(Cl)c(Cl)cc1Cl What is its recorded normalized growth?
1

Request the reported normalized growth associated with N=c1nc(N2CCCCC2)cc(N)n1O
1

Give its normalized growth value. Item: C[CH2][Hg][S]c1ccccc1C(=O)O
0.0601
